- Experiment summary: Cytotoxicity against human RKN cells measured after 8 days
- Assay type: functional, cell-based
- Experimental setup: 192 h
Value type: pIC50
In textbook form, pIC50 equals minus log to base ten of the concentration in mol/L.

| Chemical structure | pIC50 |
| --- | --- |
| C/C=C/Cn1cc(-c2ccc(C(=O)N3CCOCC3)cc2)c2cc[nH]c2c1=O | 4.70 |

Q: Please give measured pIC50 of the following entry: C/C=C/Cn1cc(-c2ccc(C(C)(C)O)cc2OC)c2cc[nH]c2c1=O
A: 4.70

----------
- Test system: MDA-MB-415
- Experiment summary: Cytotoxicity against human MDA-MB-415 cells measured after 8 days
- Assay type: functional, cell-based
- Experimental setup: MDA-MB-415, 192 h
Value type: IC50

Q: Please give measured IC50 of the following entry: C/C=C/Cn1cc(-c2cc(OC)c(C(=O)N3CCOCC3)cc2OC)c2cc(C)[nH]c2c1=O
A: 2000 nM

----------
- System: SNU-475
- Experiment summary: Cytotoxicity against human SNU-475 cells measured after 8 days
- Format: functional, cell-based
- Experimental setup: SNU-475, 192 h
Recorded IC50, one value per entry.
Report only the number, with the unit µM understood.

Q: Please give measured IC50 of the following entry: C/C=C/Cn1cc(-c2ccc(C(C)(C)O)cc2OC)c2cc[nH]c2c1=O
A: 20

Q: Please give measured IC50 of the following entry: C/C=C/Cn1cc(-c2ccc(C(=O)N3CCOCC3)cc2)c2cc[nH]c2c1=O
A: 20

----------
- Experiment summary: Cytotoxicity against human NCE-G 122 cells measured after 8 days
- Assay type: functional, cell-based
- Experimental setup: NCE-G 122, 192 h
Recorded pIC50, one value per entry.
In textbook form, pIC50 equals minus log to base ten of the concentration in mol/L.

| Chemical structure | pIC50 |
| --- | --- |
| C/C=C/Cn1cc(-c2ccc(C(C)(C)O)cc2OC)c2cc[nH]c2c1=O | 4.70 |

Consider now this further compound.
Q: Please give measured pIC50 of the following entry: C/C=C/Cn1cc(-c2ccc(C(=O)N3CCOCC3)cc2)c2cc[nH]c2c1=O
A: 4.70

----------
Recorded IC50, one value per entry.
- Experiment summary: Cytotoxicity against human OVSAHO cells measured after 8 days
- Assay type: functional, cell-based
- Experimental setup: 192 h
Report only the number, with the unit µM understood.

| Chemical structure | U | IC50 |
| --- | --- | --- |
| C/C=C/Cn1cc(-c2ccc(C(=O)N3CCOCC3)cc2)c2cc[nH]c2c1=O | µM | 20 |

Consider now this further molecule.
Q: Please give measured IC50 of the following entry: C/C=C/Cn1cc(-c2ccc(C(C)(C)O)cc2OC)c2cc[nH]c2c1=O
A: 20

----------
- Test system: HEL
- Experiment summary: Cytotoxicity against human HEL cells measured after 3 days
- Format: functional, cell-based
- Experimental setup: 72 h
Value type: pIC50
In textbook form, pIC50 equals minus log to base ten of the concentration in mol/L.

Q: Please give measured pIC50 of the following entry: C/C=C/Cn1cc(-c2cc(OC)c(C(=O)N3CCOCC3)cc2OC)c2cc(C)[nH]c2c1=O
A: 5.30

----------
- Experiment summary: Lipophilicity, log D of the compound at pH 7.4
- Format: physicochemical
- Experimental setup: buffer
Value type: logD
Form: value (number only, do not type unit).

Q: Please give measured logD of the following entry: C/C=C/Cn1cc(-c2cc(OC)c(C(=O)N3CCOCC3)cc2OC)c2cc(C)[nH]c2c1=O
A: 2.4

src = ChEMBL document CHEMBL5260810
